# Target Desc: JAK1 (recombinant purified GST-tagged catalytic domain) (Homo sapiens (Human), UniProt P23458)
# Sequence (P23458 875-1153): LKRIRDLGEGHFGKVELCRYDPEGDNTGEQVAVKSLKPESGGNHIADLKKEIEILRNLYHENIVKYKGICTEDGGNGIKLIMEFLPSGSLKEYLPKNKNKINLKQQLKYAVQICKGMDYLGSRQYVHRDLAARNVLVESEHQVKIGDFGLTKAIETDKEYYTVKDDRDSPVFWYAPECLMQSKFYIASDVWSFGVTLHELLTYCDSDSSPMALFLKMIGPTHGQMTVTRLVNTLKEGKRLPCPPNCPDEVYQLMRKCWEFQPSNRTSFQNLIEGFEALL
# Experiment Description: Jak Biochemical HTRF Assay (JAK1)
# Experimental Setup: [ATP] 31.8 μM
pIC50: −log10 of the molar value.
Assign Criterion met whenever pIC50 does not fall below 10; assign Criterion not met whenever it does.

CC1(C)CCCC1S(=O)(=O)c1ccc(Nc2nn([C@]3(CC#N)CCCOC3)c3cc[nH]c(=O)c23)cc1 (some centres unmarked) [Example 5-202]    Criterion not met
CN1Cc2cc(Nc3nn([C@]4(CC#N)CC[C@@H](C(=O)OC(C)(C)C)OC4)c4cc[nH]c(=O)c34)ccc2S1(=O)=O [Example 5-55]    Criterion met
CCNC(c1ccc(Nc2nn([C@]3(CC#N)CC[C@@H](C(=O)OC(C)(C)C)OC3)c3cc[nH]c(=O)c23)cc1)C(F)(F)F (single isomer, unassigned) [Example 5-208]    Criterion not met
CC(C)(C)N1Cc2cc(Nc3nn([C@]4(CC#N)CC[C@H](N5CC(F)C5)CC4)c4cc[nH]c(=O)c34)ccc2S1(=O)=O [Example 18-36]    Criterion not met

Q: Reported pIC50 at or above 10? CC(C)(C)OC(=O)N1CCC(CC#N)(n2nc(Nc3ccc([C@]4(C(F)(F)F)CCCCN4)cc3)c3c(=O)[nH]ccc32)CC1 (single isomer, unassigned) [Example 21-16]
Ans: Criterion not met

Q: Entry CCOC(=O)C(C)(C)C(O)(c1ccc(Nc2nn([C@]3(CC#N)CCCOC3)c3cc[nH]c(=O)c23)cc1)C(F)(F)F (single isomer, unassigned) [Example 5-112] : is its pIC50 no less than 10?
Ans: Criterion not met

Q: Textbook exercise: given the entry N#CC[C@]1(n2nc(Nc3ccc(Cl)c(F)c3)c3c(=O)[nH]ccc32)CC[C@H](Nc2ccccc2)CC1 [Example 18-26] , state whether its pIC50 is greater than or equal to 10.
Ans: Criterion not met

Q: Hi, just wondering whether Cc1ccc(CN2CCC(CC#N)(n3nc(Nc4ccc(S(=O)(=O)N(C)C)cc4)c4c(=O)[nH]ccc43)CC2)cc1 [Example 8-2] shows pIC50 of 10 or higher.
Ans: Criterion not met

Q: pIC50 >= 10 for CC(C)OC(=O)[C@@H]1CC[C@@](CC#N)(n2nc(Nc3ccc4c(c3)CN(C(C)(C)C)S4(=O)=O)c3c(=O)[nH]ccc32)CO1 [Example 19-3] ?
Ans: Criterion met

====

# Target Desc: JAK2 (recombinant purified GST-tagged catalytic domain) (Homo sapiens (Human), UniProt O60674)
# Sequence (O60674 849-1124): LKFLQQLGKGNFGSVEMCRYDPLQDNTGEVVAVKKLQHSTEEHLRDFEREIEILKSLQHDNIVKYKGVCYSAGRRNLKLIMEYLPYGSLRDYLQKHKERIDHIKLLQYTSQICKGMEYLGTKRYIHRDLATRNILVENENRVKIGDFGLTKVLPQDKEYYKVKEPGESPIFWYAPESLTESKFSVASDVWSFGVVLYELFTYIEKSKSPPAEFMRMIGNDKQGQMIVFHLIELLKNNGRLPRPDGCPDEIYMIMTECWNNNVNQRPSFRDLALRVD
# Experiment Description: Jak Biochemical HTRF Assay (JAK2)
# Experimental Setup: [ATP] 8.5 μM
Measure Name: pIC50
The scale used: pIC50 is minus the common logarithm of the concentration in molar units.

// known answers, use as guide
COC(=O)N1CCC(CC#N)(n2nc(Nc3ccc4c(c3)CCC4(O)C(F)(F)F)c3c(=O)[nH]ccc32)CC1 (single isomer, unassigned) [Example 5-144]    9.68
Cc1cc(Nc2nn(C3(CC#N)CCN(C(=O)OC(C)(C)C)CC3)c3cc[nH]c(=O)c23)ccc1C(=O)N1CCSCC1    9.49

For the next question, use this molecule.
Q: Given the molecule "CCN(CC)S(=O)(=O)c1ccc(Nc2nn(C3(CC#N)CCCC3)c3cc[nH]c(=O)c23)cc1" , what is its reported pIC50?
Ans: 9.00
